# Tested on: Escherichia coli TOP10;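 further: peptides expressed intracellularly from a pBAD plasmid library in pooled LB shake-flask culture, induced with 0.3% L-arabinose, DNA abundance read by NGS, three biological replicates, DESeq2 with apeglm shrinkage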
# method-description: shrunken log2 fold change of peptide-encoding DNA abundance (4.5 h post-induction vs induction); higher = less antimicrobial activity (less host growth inhibition)
# setup-conditions: time post-induction: 4.5 h; library: site-saturation at positions 5, 18, 19, 20
Listed below: shrunken log2 fold change values for each entry.
observation-type: shrunken log2 fold change

RRIRIRPPRLPRPRPRPRCLPRP	-0.228
RRIRERPPRLPRPRPRPLEKPRP	0.094
RRIRHRPPRLPRPRPRPYCWPRP	-0.352
RRIRVRPPRLPRPRPRPWDEPRP	-0.334
RRIRWRPPRLPRPRPRPHRDPRP	-0.215
RRIRLRPPRLPRPRPRPRLWPRP	0.399
RRIRYRPPRLPRPRPRPSDQPRP	-0.235
RRIRERPPRLPRPRPRPYTIPRP	-0.267
